Here, each record is paired with measured Kd data.
Molecular target: human CA-XII (Homo sapiens, UniProt O43570)
Construct: purchased Creative BioMart CA12-261H
Sequence (O43570 25-354): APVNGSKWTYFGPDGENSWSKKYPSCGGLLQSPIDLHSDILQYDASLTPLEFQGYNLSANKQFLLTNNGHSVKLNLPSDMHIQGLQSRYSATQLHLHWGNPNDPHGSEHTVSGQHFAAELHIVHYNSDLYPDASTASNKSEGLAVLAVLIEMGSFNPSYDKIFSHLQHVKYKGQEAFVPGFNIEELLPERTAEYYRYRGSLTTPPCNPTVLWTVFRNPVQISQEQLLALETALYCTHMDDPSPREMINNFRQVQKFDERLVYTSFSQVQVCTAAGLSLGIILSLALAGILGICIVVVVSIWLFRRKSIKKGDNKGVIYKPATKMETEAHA
Assay: Surface Plasmon Resonance (SPR) binding kinetics to recombinant human CA-XII (Biacore 8K, single-cycle kinetics, 1:1 binding model)
Settings: Chelated Metal: None, 25° C., pH 7.4, read-out: CAXII KD
Description: G1. Surface Plasmon Resonance Assay Conditions for hCA-IX and hCA-XII Surface Plasmon Resonance (SPR) experiments were conducted on a Biacore 8K instrument (Cytiva, Marlborough, MA) to determine the binding kinetics of the compound to recombinant human CA-IX (Acro, CA9-H82E3) and CA-XII (Creative BioMart, CA12-261H) proteins. […]

Molecule: CC(CCC(=O)N[C@@H](CC(=O)N[C@@H](CC(=O)N1CCN(C(=O)CN2CCN(CC(=O)O)CCN(CC(=O)O)CCN(CC(=O)O)CC2)C[C@@H]1CCCCn1cc(C23CCC(C(=O)Nc4nnc(S(N)(=O)=O)s4)(CC2)C3)nn1)C(=O)O)C(=O)O)(c1ccc(O)cc1)c1ccc(O)cc1 [Compound 104.2]
Target: human CA-XII (Homo sapiens, UniProt O43570)
Endpoint value: < 1 nM

Molecule: CC(CCC(=O)N[C@@H](CC(=O)N[C@@H](CC(=O)N1CCN(C(=O)CCOCCOCCOCCOCCN(CCOCCOCCOCCOCCC(=O)N2CCN(C(=O)C[C@H](NC(=O)C[C@H](NC(=O)CCC(C)(c3ccc(O)cc3)c3ccc(O)cc3)C(=O)O)C(=O)O)[C@H](C(=O)NCCn3cc(C45CC(C(=O)Nc6nnc(S(N)(=O)=O)s6)(C4)C5)nn3)C2)C(=O)CN2CCN(CC(=O)O)CCN(CC(=O)O)CCN(CC(=O)O)CC2)C[C@H]1C(=O)NCCn1cc(C23CC(C(=O)Nc4nnc(S(N)(=O)=O)s4)(C2)C3)nn1)C(=O)O)C(=O)O)(c1ccc(O)cc1)c1ccc(O)cc1 [Compound 131.1]
Target: human CA-XII (Homo sapiens, UniProt O43570)
Endpoint value: < 1 nM

// switching to the query molecule
Could you share what Kd was measured for CC(CCCC(=O)N1CCC(C(N)=O)(C(=O)NCC(=O)N[C@@H](CCCCn2cc(CCCC(=O)Nc3nnc(S(N)(=O)=O)s3)nn2)C(=O)NCCOCCOCCNC(=O)CN2CCN(CC(=O)O)CCN(CC(=O)O)CCN(CC(=O)O)CC2)CC1)(c1ccc(O)cc1)c1ccc(O)cc1 [Compound 102.3] , tested on human CA-XII (Homo sapiens, UniProt O43570)?
> 10 nM
